Reference source: the supplement of paper PMC9262897

# Test system: E. coli TESEC Alr+ wild-type control
# ASSAY_NAME: growth (OD600 after 10 h); higher = more growth (less inhibition)
# MEASUREMENT_CONDITIONS: compound 0.1 mM; raw OD600 reference: median of DMSO wells 0.49, cell-free background 0.052
Where a name gives a salt, the structure may show the parent alone.
Field: growth. Provide a value for each of the compounds that follow.
Give bare numbers.

CCOC(=O)/C=C(C)/C=C/C=C(C)/C=C/c1c(C)cc(OC)c(C)c1C [Etretinate] :: 0.544
CC1=C(C(=O)O)N2C(=O)[C@@H](NC(=O)[C@H](N)c3ccc(O)cc3)[C@H]2SC1 :: 0.606
C[C@]1(Cn2ccnn2)[C@H](C(=O)O)N2C(=O)C[C@H]2S1(=O)=O :: 0.0454

Proceeding to the next compound to report its growth.
Qu. Please report the recorded growth for CCOC(=O)[C@H](CCc1ccccc1)N[C@@H](C)C(=O)N1CCC[C@H]1C(=O)O [Enalapril maleate] .
Ans. 0.499

----------
# Test system: E. coli TESEC Mtb DapB
# ASSAY_NAME: growth (OD600 after 10 h); higher = more growth (less inhibition)
# MEASUREMENT_CONDITIONS: arabinose induction (level): High; compound 0.1 mM; raw OD600 reference: median of DMSO wells […], cell-free background 0.041
Structures can show the parent of a compound that is named as a salt.
Give measured growth for each item. Keep answers brief.
Give bare numbers.

Recorded results for 3 compounds are shown here.
CN1CCN(CC(=O)N2c3ccccc3C(=O)Nc3cccnc32)CC1 [Pirenzepine dihydrochloride] :: 0.19
CC(=O)[C@H]1CC[C@H]2[C@@H]3CCC4=CC(=O)CC[C@]4(C)[C@H]3CC[C@]12C [Progesterone] :: 0.178
Nc1nc2c(ncn2COC(CO)CO)c(=O)[nH]1 [Ganciclovir] :: 0.21

# ---- query compound ----
Qu. Name the reported growth value associated with the compound CCN[C@H]1CN(CCCOC)S(=O)(=O)c2sc(S(N)(=O)=O)cc21 [Brinzolamide]
Ans. 0.202

----------
# Test system: E. coli TESEC Mtb Alr
# ASSAY_NAME: growth (OD600 after 10 h); higher = more growth (less inhibition)
# MEASUREMENT_CONDITIONS: arabinose 1000000 nM; compound 0.1 mM; raw OD600 reference: median of DMSO wells 0.193, cell-free background 0.041
Structures can show the parent of a compound that is named as a salt.
Cut-off 0.1 on growth, inclusive. At or above means yes (1); below means no (0).

Use these answered entries as a reference point.
CN(CCCCCCCCCCN(C)C(=O)Oc1cccc([N+](C)(C)C)c1)C(=O)Oc1cccc([N+](C)(C)C)c1 [Demecarium bromide] :: no (0)
Nc1nc(NC2CC2)c2ncn([C@H]3C=C[C@@H](CO)C3)c2n1 [Abacavir Sulfate] :: yes (1)
NC[C@@H]1O[C@H](O[C@H]2[C@@H](O)[C@H](O[C@@H]3[C@@H](O)[C@H](N)C[C@H](N)[C@H]3O[C@H]3O[C@H](CN)[C@@H](O)[C@H](O)[C@H]3N)O[C@@H]2CO)[C@H](N)[C@@H](O)[C@@H]1O [Neomycin sulfate] :: yes (1)

Qu. Is it the case that `CC(C)CC(=O)N[C@H](C(=O)N[C@H](C(=O)N[C@@H](CC(C)C)[C@@H](O)CC(=O)N[C@@H](C)C(=O)N[C@@H](CC(C)C)[C@@H](O)CC(=O)O)C(C)C)C(C)C` has growth reaching or exceeding 0.1?
Ans. yes (1)

Qu. Here is the next molecule: `CCOC(=O)n1ccn(C)c1=S`
Ans. yes (1)

Qu. What do you get for CC12CC3CC(C)(C1)CC(N)(C3)C2 [Memantine Hydrochloride] ?
Ans. yes (1)

Qu. Continue with `CN1C(C(=O)Nc2ccccn2)=C(O)c2ccccc2S1(=O)=O`
Ans. yes (1)

Qu. Consider next the molecule Cc1onc(-c2c(F)cccc2Cl)c1C(=O)N[C@@H]1C(=O)N2[C@@H]1SC(C)(C)[C@@H]2C(=O)O [Flucloxacillin sodium] in the same way.
Ans. yes (1)

Qu. Same question for Clc1ccc(CSC(Cn2ccnc2)c2ccc(Cl)cc2Cl)cc1 (centres undefined) [Sulconazole nitrate] please.
Ans. no (0)

Qu. Now consider CN1CCN(CCCN2c3ccccc3Sc3ccc(Cl)cc32)CC1 [Prochlorperazine dimaleate] and answer again.
Ans. no (0)

Qu. Repeat for the following molecule: `COc1ccc(C(=O)CC(=O)c2ccc(C(C)(C)C)cc2)cc1`
Ans. yes (1)

Qu. Continue with CCN[C@H]1CN(CCCOC)S(=O)(=O)c2sc(S(N)(=O)=O)cc21 [Brinzolamide]
Ans. yes (1)

Qu. Try CCCN(CCC)C(=O)C(CCC(=O)O)NC(=O)c1ccccc1 (centres undefined) [Proglumide] next.
Ans. yes (1)

Qu. Let us now turn to COc1ccc(CC2c3cc(OC)c(OC)cc3CC[N+]2(C)CCC(=O)OCCCCCOC(=O)CC[N+]2(C)CCc3cc(OC)c(OC)cc3C2Cc2ccc(OC)c(OC)c2)cc1OC (centres undefined) [Atracurium besylate]
Ans. yes (1)

Qu. And then Clc1ccc(COC(Cn2ccnc2)c2ccc(Cl)cc2Cl)c(Cl)c1 (centres undefined) , what is it?
Ans. no (0)

Qu. Please do the same for O=C(C1CCCCC1)N1CC(=O)N2CCc3ccccc3C2C1 (centres undefined) as well.
Ans. yes (1)

Qu. Request: `COC1=C(OC)C(=O)C(CCCCCCCCCCO)=C(C)C1=O`
Ans. no (0)

Qu. And then `CC(C)c1nc(CN(C)C(=O)N[C@H](C(=O)N[C@@H](Cc2ccccc2)C[C@H](O)[C@H](Cc2ccccc2)NC(=O)OCc2cncs2)C(C)C)cs1` , what is it?
Ans. yes (1)

Qu. Continue with `CC1=C(C(=O)O)N2C(=O)[C@@H](NC(=O)[C@H](N)c3ccc(O)cc3)[C@H]2SC1`
Ans. yes (1)
